Hi there, I'd appreciate the recorded VP/F, peripheral volume of distribution, population estimate (%RSE) for every entry that follows.
# RUN_DESCRIPTION: Population PK model from satellite PK studies in hamster
# CONDITION_DETAILS: hamster of the study's median weight (80-131 g)

Quick check: VP/F, peripheral volume of distribution, population estimate (%RSE) of C[C@@]1(F)[C@H](O)[C@@H](CO)O[C@H]1n1cnc2c(=O)[nH]c(N)nc21 [AT-273] ? 84800 (27.3) mL

Please give the result for Nc1c(Br)cc(Br)cc1CN[C@H]1CC[C@H](O)CC1 [Ambroxol, ambroxol] too. 16100 (31.6%) mL

Please give the result for COC(=O)N[C@H](C(=O)N1CCC[C@H]1c1nc(-c2ccc(-c3ccc(-c4c[nH]c([C@@H]5CCCN5C(=O)[C@@H](NC(=O)OC)C(C)C)n4)cc3)cc2)c[nH]1)C(C)C [Daclatasvir, daclatasvir] too. 438 (25.6) mL

Please give the result for CC(C)/N=c1\cc2n(-c3ccc(Cl)cc3)c3ccccc3nc-2cc1Nc1ccc(Cl)cc1 [Clofazimine, clofazimine] too. 2250 (28.0) mL

Please give the result for CC(C)OC(=O)[C@H](C)N[P@](=O)(OC[C@H]1O[C@@H](n2ccc(=O)[nH]c2=O)[C@](C)(F)[C@@H]1O)Oc1ccccc1 [Sofosbuvir, sofosbuvir] too. 1490000 (27.9) mL

====

# RUN_DESCRIPTION: in vitro
# CONDITION_DETAILS: African green monkey, Selectivity Index (Vero cells), With Pgp pump inhibitor, T: toxicity observed
MEASUREMENT_TYPE: selectivity ratio

Quick check: selectivity ratio of O=C(Nc1ncc([N+](=O)[O-])s1)c1ccccc1O [Tizoxanide, tizoxanide] ? > 21.7

Please give the result for `CC(C)C(=O)OC[C@H]1O[C@@H](n2ccc(NO)nc2=O)[C@H](O)[C@@H]1O` too. > 19.4

Please give the result for `COC(=O)N[C@H](C(=O)N1CCC[C@H]1c1nc(-c2ccc(-c3ccc(-c4c[nH]c([C@@H]5CCCN5C(=O)[C@@H](NC(=O)OC)C(C)C)n4)cc3)cc2)c[nH]1)C(C)C` too. > 6.6

====

# RUN_DESCRIPTION: Population PK model from satellite PK studies in hamster
# CONDITION_DETAILS: hamster of the study's median weight (80-131 g)
Hi there, I'd appreciate the recorded Q/F (Q1/F), inter-compartment clearance, population estimate (%RSE) for every entry that follows.

Quick check: Q/F (Q1/F), inter-compartment clearance, population estimate (%RSE) of `CC(C)OC(=O)[C@H](C)N[P@](=O)(OC[C@H]1O[C@@H](n2ccc(=O)[nH]c2=O)[C@](C)(F)[C@@H]1O)Oc1ccccc1` ? 139000 (17.2) mL/h

Please give the result for `COC(=O)N[C@H](C(=O)N1CCC[C@H]1c1nc(-c2ccc(-c3ccc(-c4c[nH]c([C@@H]5CCCN5C(=O)[C@@H](NC(=O)OC)C(C)C)n4)cc3)cc2)c[nH]1)C(C)C` too. 33.4 (25.5) mL/h

Please give the result for `C[C@@]1(F)[C@H](O)[C@@H](CO)O[C@H]1n1cnc2c(=O)[nH]c(N)nc21` too. 6730 (12.2) mL/h

Please give the result for `CC(C)/N=c1\cc2n(-c3ccc(Cl)cc3)c3ccccc3nc-2cc1Nc1ccc(Cl)cc1` too. 235 (10.4) mL/h

Please give the result for `Nc1c(Br)cc(Br)cc1CN[C@H]1CC[C@H](O)CC1` too. 1180 (22.5%) mL/h
